# Test system: HCT-116
# method.notes: NCI tumour cell line growth inhibition, 48 h
Activity calls are given as the source filed them. Cut-off read from the data, not from the text of the source: active = GI50 up to about 1.1 µM and inactive = higher.
Your answer must be one of the following: yes = active, no = inactive

So what was the verdict on OC1(c2cccs2)c2cccc(Cl)c2C(O)(c2cccs2)c2c(Cl)cccc21 (centres undefined) in this test? no

So what was the verdict on O=C1OC(c2ccccc2)N/C1=C\c1ccc2c(c1)OCO2 (centres undefined) in this test? no

So what was the verdict on CC1=CC(=O)[C@@H](O)[C@]2(C)[C@H]3[C@@]4(O)OC[C@]35[C@H]([C@@H](C)[C@H]4O)[C@@H](OC(=O)C(C)(C)CO)C(=O)O[C@@H]5C[C@@H]12 in this test? yes

So what was the verdict on Cc1cc(S(=O)(=O)/N=C(\NN)NNc2cccc(C(F)(F)F)n2)c(S)cc1Cl in this test? no

====

# Test system: OVCAR-5
# method.notes: NCI tumour cell line growth inhibition, 48 h
Active and inactive are the calls of the source. No stated cut-off is given here; in the data, active = GI50 up to about 1.1 µM and inactive = higher.
readout: GI50

Give reported GI50 value for O=C(Cn1c2ccc(Br)cc2c2nc3ccccc3nc21)Nc1ccccc1 47 µM (inactive)

Give reported GI50 value for c1cc(C2N3CCCN2CC3)ccn1 (configuration not stated) > 100 µM (inactive)

Give reported GI50 value for On1c(-c2ccccc2)c(-c2ccccc2N2CCCC2)c2ccccc21 > 100 µM (inactive)

Give reported GI50 value for Cc1ccc2nc(CN3CCCC(O)C3)cc(=O)n2c1 (configuration not stated) > 100 µM (inactive)

Give reported GI50 value for CCOP(=O)(C=C=C1CCC2[C@@H]3CCc4cc(OC)ccc4C3CC[C@]12C)OCC (some centres not stated) 17 µM (inactive)

Give reported GI50 value for CCOC(=O)C(=O)Nc1c(N(CC)CC)n2ccccc2nc1=O > 100 µM (inactive)

Give reported GI50 value for CCCCc1ccc2[n+](c1)C(C(=O)OCC)=PC2 (configuration not stated) > 100 µM (inactive)

Give reported GI50 value for Cc1ccc(O)c(C2=CC(c3cccc(Cl)c3)SC(=N)N2)c1 (configuration not stated) 26.2 µM (inactive)

Give reported GI50 value for CCOC(=O)c1c(-c2ccc(OC)cc2)c(C#N)c(=S)n(C2OC(CO)C(O)C(O)C2O)c1C (configuration not stated) > 100 µM (inactive)

Give reported GI50 value for Nc1nc(=O)n([C@@H]2CC[C@H](CO)O2)cc1F > 100 µM (inactive)

Give reported GI50 value for c1ccc(C2CC(N3CCOCC3)=Nc3ccccc3N2)cc1 (configuration not stated) > 100 µM (inactive)

Give reported GI50 value for O=C1C(=C(C(=O)c2ccccc2)C(=O)c2ccccc2)OC(c2ccccc2)=C1C(=O)c1ccccc1 16.9 µM (inactive)

Give reported GI50 value for C=CCN1C(=O)/C(=C/c2ccc(OC)cc2)NC1=S > 100 µM (inactive)

Give reported GI50 value for N#Cc1cc([N+](=O)[O-])ccc1NC(=O)/C(=N/N)C(C(=O)c1ccc(Cl)c(Cl)c1)C1OC(=O)c2ccccc21 (configuration not stated) 47.2 µM (inactive)

Give reported GI50 value for Brc1ccc2c3c1[C@H]1O[C@H]1c1cccc(c1-3)[C@@H]1O[C@H]21 20.2 µM (inactive)

Give reported GI50 value for N#Cc1c(N)oc(-c2ccc([N+](=O)[O-])cc2)c1C#N 69.8 µM (inactive)

Give reported GI50 value for O=C(CC(C(=O)c1ccsc1)c1ccc2c(c1)OCO2)c1ccccc1 (configuration not stated) > 100 µM (inactive)

====

# System: SF-295
# method.notes: NCI tumour cell line growth inhibition, 48 h
Activity calls are given as the source filed them. Cut-off read from the data, not from the text of the source: active = GI50 up to about 1.1 µM and inactive = higher.
Your answer must be one of the following: true (active), false (inactive)

So what was the verdict on CO[C@@]12[C@H](COC(N)=O)C3=C(C(=O)C(C)=C(N)C3=O)N1C[C@H]1[C@@H]2N1C (stereo partly drawn) [PORFIROMYCIN] in this test? true

So what was the verdict on CC(=O)OCC1OC(n2c3c(c(-c4ccc(C)cc4)c(C#N)c2=S)C(=O)CC(C)(C)C3)C(OC(C)=O)C(OC(C)=O)C1OC(C)=O (stereo not drawn) in this test? false

So what was the verdict on CC1CC(C)C2=NOS3=C2C1=NO3 (stereo not drawn) in this test? false

So what was the verdict on CCOc1ccc(NCC2CC/C(=C\C=C\c3ccccc3)C2=O)cc1 (stereo not drawn) in this test? false

So what was the verdict on CCOC(=O)c1c(-c2ccc(OC)cc2)c(C#N)c(=S)n(C2OC(CO)C(O)C(O)C2O)c1C (stereo not drawn) in this test? false

So what was the verdict on C=C1C(=O)OC2/C=C(/C)C(OC(C)=O)C/C=C(\C)C(OC(=O)C3(C)OC3C)C(O)C12 (stereo not drawn) in this test? false

So what was the verdict on Cn1c(=O)c2nc(CCNC(=O)c3ccccc3)[nH]c2n(C)c1=O in this test? false

So what was the verdict on O=c1[nH]c2c(Nc3c4ccccc4nc4ccccc34)c([N+](=O)[O-])c(Nc3c4ccccc4nc4ccccc34)c([N+](=O)[O-])c2[nH]1 in this test? false

====

# Test system: SN12C
# method.notes: NCI tumour cell line growth inhibition, 48 h
Activity calls are given as the source filed them. Rule as the data show it: active = GI50 up to about 1.1 µM and inactive = higher.
readout: GI50

Give reported GI50 value for O=CN1CCC23CC(O)CCC2C1Cc1cc(Oc2nnnn2-c2ccccc2)cc(O)c13 (centres undefined) > 100 µM (inactive)

Give reported GI50 value for O=C1CCC[C@@H]2NC[C@@H](c3ccc4c(c3)OCO4)[C@H]12 > 25 µM (inactive)

Give reported GI50 value for CC(C)(C)[Si](OC1CCOC1=O)(c1ccccc1)c1ccccc1 (centres undefined) 17.1 µM (inactive)

Give reported GI50 value for COc1ccc(-c2c(C#N)c(S)n(NS(=O)(=O)c3ccc(C)cc3)c(=O)c2C#N)cc1 17.2 µM (inactive)

Give reported GI50 value for COc1ccc(/N=N/c2ccc3oc(=O)c(C(=O)Nc4ccccc4)cc3c2)cc1 > 10 µM (inactive)

Give reported GI50 value for Cc1cccc(Nc2nn3c(=O)c4c5c(sc4nc3s2)CCCC5)c1 66.7 µM (inactive)

Give reported GI50 value for c1ccc2sc(C3(N4CCCCC4)CCCCCC3)cc2c1 20.4 µM (inactive)

Give reported GI50 value for CN(C)c1ccc(/C=N/C23CC4CC(CC(C4)C2)C3)cc1 > 100 µM (inactive)

Give reported GI50 value for O=C(O)CN(c1ccccc1)S(=O)(=O)c1ccc(NC(=O)c2ccccc2)cc1 > 100 µM (inactive)

Give reported GI50 value for CC(=O)C1=C(C)N(c2ccc(C)cc2)C2(O)C=CC(=O)C3C(=O)N(c4ccccc4)C(=O)C132 (centres undefined) 15.5 µM (inactive)

Give reported GI50 value for COC(=O)C1(Cc2cccc(Cl)c2)CCCCCCN1C(=O)c1ccccc1 (centres undefined) 14.5 µM (inactive)

Give reported GI50 value for O=C(O)CCCc1ccc2ccccc2c1 > 100 µM (inactive)

Give reported GI50 value for Nc1nc(N)c2ncn(Cc3ccccc3CCl)c2n1 > 100 µM (inactive)

Give reported GI50 value for On1c(-c2ccccc2)c(-c2ccccc2N2CCCC2)c2ccccc21 > 100 µM (inactive)

Give reported GI50 value for CC(C)(C)c1ccc2c(c1)S(=O)(=O)Nc1ccc(Cl)cc1NS(=O)(=O)c1cc(C(C)(C)C)ccc1OCCOCCOCCO2 43.5 µM (inactive)

Give reported GI50 value for COc1ccc(/C=C2\CCc3ccccc3C2=O)cc1OC 25.2 µM (inactive)

Give reported GI50 value for O=C(CC(C(=O)c1ccsc1)c1ccc2c(c1)OCO2)c1ccccc1 (centres undefined) > 100 µM (inactive)

Give reported GI50 value for CC(C)CC(NC(=O)OCc1ccccc1)C(=O)NCCCCC(N)C(=O)NC(CCCCNC(=O)C(CC(C)C)NC(=O)OCc1ccccc1)C(=O)NC(CCCCNC(=O)C(CC(C)C)NC(=O)OCc1ccccc1)C(=O)NC(CCCCNC(=O)C(CC(C)C)NC(=O)OCc1ccccc1)C(=O)NC(CCCCNC(=O)C(CC(C)C)NC(=O)OCc1ccccc1)C(=O)NC(CCCCNC(=O)C(CC(C)C)NC(=O)OCc1ccccc1)C(=O)O (centres undefined) > 100 µM (inactive)

Give reported GI50 value for Cc1ccc(NC(=O)CCC(=O)C(C#N)c2ccc(Cl)cc2)cc1C (centres undefined) > 100 µM (inactive)

====

# Test system: SN12C
# method.notes: NCI tumour cell line growth inhibition, 48 h
The source made the active and inactive calls. Cut-off read from the data, not from the text of the source: active = GI50 up to about 1.1 µM and inactive = higher.
readout: GI50

Give reported GI50 value for CC(=O)O[C@H]1/C(=C/c2ccncc2)C[C@H]2[C@@H]3CC=C4C[C@@H](N5CCCC5)CC[C@]4(C)[C@H]3CC[C@]12C 17 µM (inactive)

Give reported GI50 value for CCCCCCCCCCCCCCCC(=O)OCCOCCOCCOCCOCCOC(=O)CCCCCCCCCCCCCCC > 100 µM (inactive)

Give reported GI50 value for CCN(CC)C(=S)N/N=C/c1ccccn1 0.0212 µM (active)

Give reported GI50 value for COc1cc(N(C)C)ccc1C=c1c2ccccc2n2c1cc(-c1ccccc1)[n+]2C 0.296 µM (active)

Give reported GI50 value for Oc1ccc2ccccc2c1/N=N/c1ccc(Br)cc1 > 100 µM (inactive)

Give reported GI50 value for O=[As](O)(O)c1ccc(Cc2ccc([As](=O)(O)O)cc2)cc1 0.64 µM (active)

Give reported GI50 value for Cc1ccc(O)c(C2=CC(c3cccc(Cl)c3)SC(=N)N2)c1 (stereo not given) 16.9 µM (inactive)

Give reported GI50 value for O/N=C1\C/C(=N\O)c2c(Br)sc(Br)c21 > 100 µM (inactive)

Give reported GI50 value for Cc1cc2c(c(C(N)=O)c1C)-c1cccc(Cl)c1C2=O > 100 µM (inactive)

Give reported GI50 value for Nc1nc(I)nc2c1ncn2C1OC(COS(N)(=O)=O)C(O)C1O (stereo not given) < 0.01 µM (active)
